A short record of Kd observed with UniProtKB P08682 follows.
Sequence (P08682 whole entry): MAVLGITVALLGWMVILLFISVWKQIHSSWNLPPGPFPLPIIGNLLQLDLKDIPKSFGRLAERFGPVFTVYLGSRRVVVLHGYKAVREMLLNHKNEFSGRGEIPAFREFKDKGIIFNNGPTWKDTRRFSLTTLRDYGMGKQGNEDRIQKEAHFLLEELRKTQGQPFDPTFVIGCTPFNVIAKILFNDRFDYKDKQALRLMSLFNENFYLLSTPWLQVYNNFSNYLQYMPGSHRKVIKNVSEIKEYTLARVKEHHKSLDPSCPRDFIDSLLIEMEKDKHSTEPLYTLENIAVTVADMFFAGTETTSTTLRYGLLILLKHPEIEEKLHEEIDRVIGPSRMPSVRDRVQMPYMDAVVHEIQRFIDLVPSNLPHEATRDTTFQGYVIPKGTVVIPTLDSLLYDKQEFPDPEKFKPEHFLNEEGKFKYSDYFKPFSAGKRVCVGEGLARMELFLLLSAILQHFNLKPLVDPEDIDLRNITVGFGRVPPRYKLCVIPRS
OUTCOME_MEASURE: Kd (µM)

[P] c1ccc2[nH]cnc2c1
[Q] c1ccc(-c2cc[nH]n2)cc1
[R] Cc1cc[nH]n1
In this exercise, place the 3 molecules in ascending sequence of their recorded Kd. Order the labels as requested and give them as your answer. R, Q, P
(R: 11 µM, Q: 22 µM, P: 550 µM)
